tested on: Rattus norvegicus; assay: Antiinflammatory activity in Freund's adjuvant-induced Lewis rat arthritis model assessed as reduction of paw volume at 0.2 mmol/kg, po qd administered on day 0 to day 21 of adjuvant challenge measured on day 7 by plethysmometry relative to control; type: functional; parameters: scale not given: the % may be the effect or the level left
Quantity Name: Activity (%)
Answers are plain numbers, in %.

The following molecules have reported results that may help.
{"columns": ["Compound", "Quantity Name", "Observed"],
 "data": [
  ["O=C(O)CCc1cn(-c2cccc(Cl)c2)nn1", "Activity", 10],
  ["O=C(O)/C=C/c1cnn(-c2ccccc2)n1", "Activity", 14],
  ["O=C(O)CCn1cc(-c2cccnc2)nn1", "Activity", 9.3],
  ["O=C(O)CCc1cnn(-c2cccc(Cl)c2)n1", "Activity", 13],
  ["O=C(O)Cn1ncc(-c2ccccc2)n1", "Activity", -17]
]}

Parameters: items (list). Returns: Activity for each item.
1. Cc1cccc(-c2cnn(CCC(=O)O)n2)c1
2. O=C(O)CCc1nc(-c2ccccc2)n[nH]1
3. O=C(O)CCn1cnc(-c2cccc(Br)c2)n1
4. O=C(O)CCn1ncc(-c2cccc(Br)c2)n1
5. O=C(O)CCc1ncn(-c2ccccc2)n1

1. 13
2. 9.1
3. 6.2
4. 19
5. 1.3

Provide Activity values for the following items, in order.
1. O=C(O)CCCn1ncc(-c2ccccc2)n1
2. O=C(O)CCn1cc(-c2ccccc2)nn1
3. O=C(O)CCn1cc(-c2cccc(Cl)c2)nn1

-1.8
8.9
-1.1

For the 6 molecules below, give their Activity values.
1. Nc1cccc(-c2cn(CCC(=O)O)nn2)c1
2. O=C(O)CCn1cnc(-c2ccccc2)n1
3. O=C(O)CCc1cnn(-c2ccccc2)n1
4. O=C(O)CCc1nc(-c2cccc(Cl)c2)n[nH]1
5. O=C(O)CCn1ncc(-c2cc(Cl)cc(Cl)c2)n1
6. O=C(O)CCc1ncn(-c2cc(Cl)cc(Cl)c2)n1

1. 2.8
2. 4.4
3. 9.1
4. 3
5. 35
6. 23

Working through the 3 molecules below one at a time, give Activity for each.
1. O=C(O)CCc1nc(-c2cccc(Br)c2)n[nH]1
2. O=C(O)CCn1nc(-c2ccccc2)c(-c2ccccc2)n1
3. O=C(O)CCn1cnc(-c2cccc(Cl)c2)n1

1: -13; 2: 21; 3: 3

Dear colleague, could you please provide Activity for the molecules listed below?
1. O=C(O)CCc1cn(-c2ccccc2)nn1
2. CC(=O)Nc1cccc(-c2cn(CCC(=O)O)nn2)c1
3. CC(=O)Nc1cccc(-c2cnn(CCC(=O)O)n2)c1
4. CCCCC1C(=O)N(c2ccccc2)N(c2ccccc2)C1=O

[2.3, 1.7, 8.1, 33]
